Values from paper PMC7753147

system: FL-geph; assay: µSPOT peptide microarray binding assay with full-length geph; conditions: µSPOT peptide microarray, GlyRβ full positional scan, intensity normalised to wild-type sequence DLRSNDFSIVGSLPR (=1)
Consider the following sequences; for each one, report its Fl-geph Binding Intensity [norm.].
Reply numerically in norm., unit not repeated.

Ask: Any idea what its Fl-geph Binding Intensity [norm.] is? The sequence is DLRSNDFSHVGSLPR [GlyRβ_Full_Positional_Scan_173, GlyR β 414-428 variant I422H]
Result: 0.55

Ask: Cool, now DGRSNDFSIVGSLPR [GlyRβ_Full_Positional_Scan_022]
Result: 0.94

Ask: Cool, now LLRSNDFSIVGSLPR [GlyRβ_Full_Positional_Scan_004]
Result: 1.1

Ask: Cool, now DLRSNDTSIVGSLPR [GlyRβ_Full_Positional_Scan_136, GlyR β 414-428 variant F420T]
Result: 0.51

---

system: gephE; assay: µSPOT peptide microarray binding assay with recombinant gephE; conditions: µSPOT full positional scan of GlyRβ 15-mer DLRSNDFSIVGSLPR; intensity normalised to wild-type sequence (= 1)
Assign true (1) to entries whose gephE Binding Intensity [norm.] meets or exceeds 0.6 norm.; assign false (0) to the rest.

Ask: Reported gephE Binding Intensity [norm.] reaches at least 0.6 norm. for DLRSNDFSIVGSLPS [GlyRβ_Full_Positional_Scan_295] ?
Result: true (1)

Ask: Cool, now DLRSNDFSIVGSLHR [GlyRβ_Full_Positional_Scan_273]
Result: true (1)

Ask: Cool, now DLRSNDFSIVGYLPR [GlyRβ_Full_Positional_Scan_229]
Result: false (0)

Ask: Cool, now DLRSNDFSIVGSCPR [GlyRβ_Full_Positional_Scan_257]
Result: true (1)

Ask: Cool, now DLRSNDFSIVGSDPR [GlyRβ_Full_Positional_Scan_250]
Result: true (1)

Ask: Cool, now DLRSNDFSIVGSPPR [GlyRβ_Full_Positional_Scan_245]
Result: true (1)

Ask: Cool, now DLRSNDFSIVGSLPA [GlyRβ_Full_Positional_Scan_281]
Result: true (1)

Ask: Cool, now DLRSNDFSIVGNLPR [GlyRβ_Full_Positional_Scan_239]
Result: true (1)

Ask: Cool, now DLRSNDFSIVKSLPR [GlyRβ_Full_Positional_Scan_214, GlyR β 414-428 variant G424K]
Result: false (0)

Ask: Cool, now DLRSNDFSIVGSAPR [GlyRβ_Full_Positional_Scan_241]
Result: true (1)

Ask: Cool, now DLRSNDFSIVGSLVR [GlyRβ_Full_Positional_Scan_266]
Result: true (1)

Ask: Cool, now DLRSNDFSIVGSLPV [GlyRβ_Full_Positional_Scan_286]
Result: true (1)

---

tested on: FL-geph; assay: µSPOT peptide microarray binding assay with full-length geph; conditions: µSPOT peptide microarray, GlyRβ full positional scan, intensity normalised to wild-type sequence DLRSNDFSIVGSLPR (=1)
Consider the following sequences; for each one, report its Fl-geph Binding Intensity [norm.].
Reply numerically in norm., unit not repeated.

Ask: Any idea what its Fl-geph Binding Intensity [norm.] is? The sequence is DLRSADFSIVGSLPR [GlyRβ_Full_Positional_Scan_081]
Result: 0.9

Ask: Cool, now DLRSNDFSIVISLPR [GlyRβ_Full_Positional_Scan_203, GlyR β 414-428 variant G424I]
Result: 0.52

Ask: Cool, now DLMSNDFSIVGSLPR [GlyRβ_Full_Positional_Scan_058]
Result: 1.3

Ask: Cool, now DLRSNDFSITGSLPR [GlyRβ_Full_Positional_Scan_196, GlyR β 414-428 variant V423T]
Result: 0.97

Ask: Cool, now DLRSKDFSIVGSLPR [GlyRβ_Full_Positional_Scan_094]
Result: 0.79

Ask: Cool, now DLSSNDFSIVGSLPR [GlyRβ_Full_Positional_Scan_055]
Result: 1.4

Ask: Cool, now DLRSNDFSSVGSLPR [GlyRβ_Full_Positional_Scan_175, GlyR β 414-428 variant I422S]
Result: 0.87

Ask: Cool, now DLRHNDFSIVGSLPR [GlyRβ_Full_Positional_Scan_073]
Result: 0.84

Ask: Cool, now DLKSNDFSIVGSLPR [GlyRβ_Full_Positional_Scan_054]
Result: 1.24

Ask: Cool, now WLRSNDFSIVGSLPR [GlyRβ_Full_Positional_Scan_008]
Result: 0.86

Ask: Cool, now DLRSNMFSIVGSLPR [GlyRβ_Full_Positional_Scan_118]
Result: 0.84

Ask: Cool, now DLRSNRFSIVGSLPR [GlyRβ_Full_Positional_Scan_112]
Result: 0.86

Ask: Cool, now DLQSNDFSIVGSLPR [GlyRβ_Full_Positional_Scan_060]
Result: 1.06

Ask: Cool, now DLRSNDFSIGGSLPR [GlyRβ_Full_Positional_Scan_182, GlyR β 414-428 variant V423G]
Result: 0.56

Ask: Cool, now DLRSNDFEIVGSLPR [GlyRβ_Full_Positional_Scan_151, GlyR β 414-428 variant S421E]
Result: 0.79

Ask: Cool, now ILRSNDFSIVGSLPR [GlyRβ_Full_Positional_Scan_003]
Result: 1.09

Ask: Cool, now DLISNDFSIVGSLPR [GlyRβ_Full_Positional_Scan_043]
Result: 1.35

Ask: Cool, now DLRSNDHSIVGSLPR [GlyRβ_Full_Positional_Scan_133, GlyR β 414-428 variant F420H]
Result: 0.61
